# Assay system: HIV-1 gp41 of strain HIV IIIB (on infectious virus) (HIV-1 strain HIVIIIB), P04578
# Protocol text: cell-based or functional assay
Readout: Antiviral activity against HIV IIIB, IC90 (MAGI/cMAGI infectivity assay)
Answer format reminder: number followed by unit.

Ask: Which Antiviral activity against HIV IIIB, IC90 (MAGI/cMAGI infectivity assay) value is on record for synthetic peptide having the amino acid sequence of SEQ ID NO:39 (modifications not checked) peptide: QARQLVSGLVQQQNNILRALEAQQHALQATVWGIKQLQARVLALERYIKDQ ?
Reply: 1.2 µg/mL

Ask: Which Antiviral activity against HIV IIIB, IC90 (MAGI/cMAGI infectivity assay) value is on record for synthetic peptide having the amino acid sequence of SEQ ID NO:38 (modifications not checked) peptide: QARQLLSGIVQQQNNLLRAIEATQHAVQALVWGVKQLQARVLALERYIKDQ ?
Reply: 0.88 µg/mL

Ask: Which Antiviral activity against HIV IIIB, IC90 (MAGI/cMAGI infectivity assay) value is on record for QARQLVSGLVQQQNNILRALEATQHAVQALVWGVKQLQARVLALERYIK (modifications not checked) [synthetic peptide having the amino acid sequence of SEQ ID NO:35] ?
Reply: 0.69 µg/mL

Ask: Which Antiviral activity against HIV IIIB, IC90 (MAGI/cMAGI infectivity assay) value is on record for QARQLVSGLVQQQNNILRALEATQHLVQLLVWGVKQLQARVLALERYIK (modifications not checked) [peptide having the amino acid sequence of SEQ ID NO:41] ?
Reply: 14.5 µg/mL
